Assay: in vitro
Conditions: human, hela cells, % viability
Flag rule - viability at 28.5 h, 10 µM less than 90% flags TRUE; the remaining entries get FALSE.

# example entries with known answers
compound: CN(C)CCCn1c(=O)n(CC(=O)O)c(=O)c2c3c(sc21)CCC3
label class: FALSE
--
compound: CN(C)S(=O)(=O)N1CCN(c2ccc([N+](=O)[O-])c(NCCc3ccccc3)c2)CC1
label class: FALSE
--
compound: COc1ccc(CCn2cncc2-c2cnn(C)c2)cc1C
label class: FALSE

# TODO verify viability at 28.5 h, 10 µM < 90% strictly for this compound: C=CCNC(=O)C1CC2CCC1(C)C[C@@]21NC(=O)c2ccccc2N1 (some centres unmarked)
TRUE
